Catalogue of ED50 values
Tested on: rat
ASSAY METHOD TEXT: analgetic effect, hot plate (rat)
Type: in vivo
REPORTED CONDITIONS: Rattus norvegicus; read-out: hot plate (rat) ED50
Where a name gives a salt, the structure may show the parent alone.
Value expressed in mg/kg; do not type the unit.

Given the compound COc1ccc2c3c1O[C@H]1C(=NN)CC[C@@]4(O)[C@@H](C2)N(C)CC[C@]314 [Oxycodone hydrazone, 14-OH-DIHYDROCODEINONE-HYDRAZONE (TRANS)] , write its reported ED50.
0.46

Given the compound COc1ccc2c3c1O[C@H]1C(=NNc4ccccc4)CC[C@H]4[C@@H](C2)N(C)CC[C@]314 [Dihydrocodeinone-phenylhydrazone] , write its reported ED50.
2.4

Given the compound COc1ccc2c3c1O[C@H]1C(=O)CC[C@H]4[C@@H](C2)N(C)CC[C@]314 [Dihydrocodeinone, reference compound] , write its reported ED50.
2.2

Would you kindly look at the next entry?
Given the compound COc1ccc2c3c1O[C@H]1C(=NNC(N)=S)CC[C@H]4[C@@H](C2)N(C)CC[C@]314 [Dihydrocodeinone thio-semicarbazone.HCl, Dihydrocodeinone thio-semicarbazone] , write its reported ED50.
1.7
